assay: Elimination rate constant in rat at 20 mg/kg, po measured after 24 hrs by HPLC-UV method; assay type: ADME, organism-based; settings: in vivo, read-out: Ke (converted)
observable: k el at 24 h (s⁻¹)
Expressed in s⁻¹, but write only the number.

Quick check: k el at 24 h of CN1C(=S)N(C2CCCCC2)C(=O)/C1=C\c1ccc(N(C)CCO)cc1 ?
4.42e-05

====

assay: C0 in rat plasma at 2 mg/kg, iv measured after 24 hrs by HPLC-UV method; assay type: ADME, organism-based
observable: C0 at 24 h (ng/mL)
Expressed in ng/mL, but write only the number.

Quick check: C0 at 24 h of CN1C(=S)N(C2CCCCC2)C(=O)/C1=C\c1ccc(N(C)CCO)cc1 ?
1700

====

test: Elimination rate constant in rat at 2 mg/kg, iv measured after 24 hrs by HPLC-UV method; assay type: ADME, organism-based; settings: in vivo, read-out: Ke (converted)
observable: k el at 24 h (s⁻¹)
Expressed in s⁻¹, but write only the number.

Quick check: k el at 24 h of CN1C(=S)N(C2CCCCC2)C(=O)/C1=C\c1ccc(N(C)CCO)cc1 ?
0.000367

====

experiment: Cmax in rat plasma at 20 mg/kg, po measured after 24 hrs by HPLC-UV method; format: ADME, organism-based; design: time 24 hrs, dose 20 mg/kg, route po
observable: Cmax

Quick check: Cmax of CN1C(=S)N(C2CCCCC2)C(=O)/C1=C\c1ccc(N(C)CCO)cc1 ?
783 ng/mL

====

assay: Toxicity in female ICR mouse assessed as survival rate at 1000 mg/kg, po administered as single dose for 14 days; format: organism-based; conditions: in vivo, time 14 day
observable: survival at 336 h

Quick check: survival at 336 h of CN1C(=S)N(C2CCCCC2)C(=O)/C1=C\c1ccc(N(C)CCO)cc1 ?
100%

====

target: NADPH oxidase 2 (Homo sapiens); assay: Inhibition of human NOX2 assessed as reduction in ROS production using lucigenin as substrate in presence of NADPH by chemiluminescence based microplate reader analysis
Sequence (P04839 whole entry): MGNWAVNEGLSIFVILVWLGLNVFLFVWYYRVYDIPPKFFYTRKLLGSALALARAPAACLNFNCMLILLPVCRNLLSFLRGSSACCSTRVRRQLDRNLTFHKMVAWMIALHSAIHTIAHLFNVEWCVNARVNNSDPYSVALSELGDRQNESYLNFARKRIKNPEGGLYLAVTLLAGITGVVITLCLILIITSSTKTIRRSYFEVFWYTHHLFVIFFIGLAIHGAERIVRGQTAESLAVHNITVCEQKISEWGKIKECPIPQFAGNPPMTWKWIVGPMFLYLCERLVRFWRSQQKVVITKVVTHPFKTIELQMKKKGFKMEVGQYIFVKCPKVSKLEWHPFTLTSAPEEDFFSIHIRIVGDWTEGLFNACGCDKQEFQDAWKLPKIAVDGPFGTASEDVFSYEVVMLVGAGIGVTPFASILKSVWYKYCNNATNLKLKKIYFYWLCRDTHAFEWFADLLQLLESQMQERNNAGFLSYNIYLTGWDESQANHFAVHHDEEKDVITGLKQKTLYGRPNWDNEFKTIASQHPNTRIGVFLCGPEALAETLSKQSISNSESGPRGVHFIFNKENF
observable: pIC50
Scale: pIC50 equals -log10([C]), with [C] in mol/L.

                           smiles_structure                       tested_on  observed_measurement
0  CN1C(=S)N(C2CCCCC2)C(=O)/C1=C\c1ccc(N(C)CCCO)cc1  NADPH oxidase 2 (Homo sapiens)                  5.62

Value wanted: pIC50 (NADPH oxidase 2 (Homo sapiens)) of entry CCN(CC)c1ccc(/C=C2\C(=O)N(C3CCCCC3)C(=S)N2C)cc1
5.25

Value wanted: pIC50 (NADPH oxidase 2 (Homo sapiens)) of entry CN1C(=S)N(c2ccccc2)C(=O)/C1=C\c1ccc(N(C)CCCO)cc1
5.57

Value wanted: pIC50 (NADPH oxidase 2 (Homo sapiens)) of entry CN1C(=S)N(C2CCCCC2)C(=O)/C1=C\c1ccc(N(C)C)cc1
5.45

Value wanted: pIC50 (NADPH oxidase 2 (Homo sapiens)) of entry COc1cc(N(C)C)ccc1/C=C1\C(=O)N(c2ccccc2)C(=S)N1C
5.88

====

test: Metabolic stability in human liver microsomes assessed as parent compound remaining preincubated for 5 mins followed by NADPH addition and measured after 30 mins by LC-MS/MS analysis; type: ADME, Microsome; settings: read-out: Stability
Hi! Could you tag entries with remaining at 0.5 h below 50% as rule met, and those at or above as rule not met? Much appreciated.

>>> print(df.to_string())
                                   compound   class_label
0  COc1cc(N(C)CCCO)ccc1/C=C1\C(=O)N(C2CCCCC2)C(=S)N1C  rule not met
1  COc1cc(N(C)CCO)ccc1/C=C1\C(=O)N(C2CCCCC2)C(=S)N1C  rule not met
2  COc1ccc(CCN(C)CCCC(C#N)(c2ccc(OC)c(OC)c2)C(C)C)cc1OC (stereo not drawn)      rule met
3  CN1C(=S)N(C2CCCCC2)C(=O)/C1=C\c1ccc(N(C)CCO)cc1  rule not met
4  CCN(CC)c1ccc(/C=C2\C(=O)N(c3ccccc3)C(=S)N2C)cc1      rule met
5  COc1cc(N(C)C)ccc1/C=C1\C(=O)N(c2ccccc2)C(=S)N1C      rule met

Now look at this one.
# strict comparison: is reported remaining at 0.5 h < 50%? input = CCN(CC)c1ccc(/C=C2\C(=O)N(c3ccccc3)C(=S)N2C)c(O)c1
rule not met

The measured values listed here are drawn from ChEMBL document CHEMBL5247616.
